# Test system: K. pneumoniae 31158
# Experimental details: microbe, parasite or virus in culture
# Format: cell-based
# Condition set: Klebsiella pneumoniae, 31158; individual peptide/antibiotics; read-out: MIC against K. pneumoniae 31158
Recorded metric: MIC (µg/mL)

>>> df
                                   molecule  recorded_metric  reported_value
0  CNC(C)C1CCC(N)C(OC2C(N)CC(N)C(OC3OCC(C)(O)C(NC)C3O)C2O)O1 (stereo not shown)              MIC            0.05
1  NC[C@H]1O[C@H](O[C@H]2[C@H](O)[C@@H](O[C@H]3O[C@H](CO)[C@@H](O)[C@H](N)[C@H]3O)[C@H](N)C[C@@H]2N)[C@H](N)C[C@@H]1O              MIC           0.012
2  COc1c(N2CCNC(C)C2)c(F)cc2c(=O)c(C(=O)O)cn(C3CC3)c12 (stereo not shown)              MIC            1.56
3  O=C(N[C@H](CO)[C@H](O)c1ccc([N+](=O)[O-])cc1)C(Cl)Cl              MIC            3.12

###

# Test system: K. pneumonia 07955
# Experimental details: Checkerboard assay
# Format: cell-based, K. pneumoniae
# Condition set: second number in parenthesis, in combination with B2088
Property: Fractional inhibitory concentration of antibiotic used for FICI calculation; scope: individual molecules
Recorded metric: Fractional inhibitory concentration of antibiotic used for FICI calculation

>>> print(df.to_string())
                                   molecule  reported_value
0  NC[C@H]1O[C@H](O[C@H]2[C@H](O)[C@@H](O[C@H]3O[C@H](CO)[C@@H](O)[C@H](N)[C@H]3O)[C@H](N)C[C@@H]2N)[C@H](N)C[C@@H]1O            0.25
1  O=C(N[C@H](CO)[C@H](O)c1ccc([N+](=O)[O-])cc1)C(Cl)Cl            0.25
2  COc1c(N2CCNC(C)C2)c(F)cc2c(=O)c(C(=O)O)cn(C3CC3)c12 (stereo not shown)             0.5
3  CNC(C)C1CCC(N)C(OC2C(N)CC(N)C(OC3OCC(C)(O)C(NC)C3O)C2O)O1 (stereo not shown)             0.5

###

# System: K. pneumonia 31158
# Experimental details: Checkerboard assay
# Type: cell-based, K. pneumoniae
Recorded metric: Fractional Inhibitory Concentration Index of B2088 with the antibiotic

Molecule	Reported value
O=C(N[C@H](CO)[C@H](O)c1ccc([N+](=O)[O-])cc1)C(Cl)Cl [Chloramphenicol]	0.63
COc1c(N2CCNC(C)C2)c(F)cc2c(=O)c(C(=O)O)cn(C3CC3)c12 (stereo not shown) [Gatifloxacin]	0.56
NC[C@H]1O[C@H](O[C@H]2[C@H](O)[C@@H](O[C@H]3O[C@H](CO)[C@@H](O)[C@H](N)[C@H]3O)[C@H](N)C[C@@H]2N)[C@H](N)C[C@@H]1O [Tobramycin]	0.25
CNC(C)C1CCC(N)C(OC2C(N)CC(N)C(OC3OCC(C)(O)C(NC)C3O)C2O)O1 (stereo not shown) [Gentamicin]	0.31
